molecular target: human TREM2 (Homo sapiens); construct: expressed in transfected cells; host or cells: HEK293T-hTREM2 cells (HEK cell line expressing human TREM2 and DAP12); assay: In vitro measurement of TREM2 activity using cellular phosphorylation of spleen tyrosine kinase (Syk), AlphaLisa, HEK293T-hTREM2 cells; type: cell-based; settings: HEK293T cells expressing human TREM2 and DAP12, 45 min at room temperature, Table D
pEC50: −log10 of the molar value.
OBSERVED PROPERTY: pEC50

IN: Name the recorded pEC50 for C[C@@H]1CN(c2nc(-c3ccc(F)cc3F)c3sc(N4CCC[C@@H]4C)nc3n2)C[C@H](c2cnn(C3CC3)c2)O1 [compound 112] .
OUT: ≥ 7.30

IN: Queued: C[C@@H]1CN(c2nc(-c3ccc(C(F)F)cc3F)c3sc(N(C)C)nc3n2)C[C@H](c2cnn(C3CC3)c2)O1 [compound 102]
OUT: ≥ 7.30

IN: Repeat for the following compound: CN(C)c1nc2nc([C@H]3CCO[C@@H](c4ccc(=O)n(C)c4)C3)nc(-c3ccc(F)cc3F)c2s1 (stereo in doubt) [compound 119]
OUT: 6.30 to 7.30

Others:
IN: Quick one: pEC50 for CN(C)c1nc2nc(N3CCO[C@H](c4cnn(C5CC5)c4)C3)nc(-c3ccc(F)cc3F)c2s1 [compound 101] ?
OUT: 6.30 to 7.30

IN: Now consider C[C@H]1CCCN1c1nc2nc([C@H]3CCO[C@@H](c4cnn(C5CC5)c4)C3)nc(-c3ccc(F)cc3F)c2n1C [compound 125] .
OUT: 6.30 to 7.30

IN: Please answer likewise for CN(C)c1nc2c(C34CC(C(F)(F)F)(C3)C4)nc([C@H]3CCO[C@@H](c4cnn(C5CC5)c4)C3)nc2n1C [compound 128]
OUT: 5.52 to 6.30

IN: Would you mind doing CCCc1nc2nc(N3C[C@@H](C)O[C@@H](c4cnn(C5CC5)c4)C3)nc(-c3ccc(F)cc3F)c2s1 [compound 114] as well?
OUT: ≥ 7.30

IN: Now try Cn1c(C(F)F)nc2nc([C@H]3CCO[C@@H](c4cnn(C5CC5)c4)C3)nc(-c3ccc(C(F)(F)F)cc3F)c21 [compound 127] .
OUT: 6.30 to 7.30

IN: And what about the compound CN(C)c1nc2nc([C@H]3CCO[C@H](c4ccc(=O)n(C)c4)C3)nc(-c3ccc(F)cc3F)c2s1 (stereo in doubt) [compound 121] ?
OUT: 6.30 to 7.30

###

biological target: human TREM2 (Homo sapiens, UniProt Q9NZC2); construct: expressed in transfected cells; host or cells: HEK293T-hTREM2 cells (HEK cell line expressing human TREM2 and DAP12); test: In vitro measurement of TREM2 activity using cellular phosphorylation of spleen tyrosine kinase (Syk), AlphaLisa, HEK293T-hTREM2 cells; type: cell-based; details: HEK293T cells expressing human TREM2 and DAP12, 45 min at room temperature, Table D-2
Sequence (Q9NZC2 19-230): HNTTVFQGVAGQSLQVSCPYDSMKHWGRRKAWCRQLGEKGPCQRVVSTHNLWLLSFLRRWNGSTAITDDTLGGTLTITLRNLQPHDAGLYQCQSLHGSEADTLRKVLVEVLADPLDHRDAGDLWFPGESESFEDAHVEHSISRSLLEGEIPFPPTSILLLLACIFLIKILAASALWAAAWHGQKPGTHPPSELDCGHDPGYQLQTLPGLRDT
Sequence (O43914 22-113 partner): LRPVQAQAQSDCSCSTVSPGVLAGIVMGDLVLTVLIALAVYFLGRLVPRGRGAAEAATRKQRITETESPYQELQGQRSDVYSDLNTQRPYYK
pEC50: −log10 of the molar value.
OBSERVED PROPERTY: pEC50

IN: # lookup: pEC50 of Cc1cc([C@H]2CN(c3cc4c(c(-c5ccc(F)cc5F)n3)CN(C)C4=O)CCO2)ccn1 [compound 203]
OUT: 4.00 to 5.52

IN: Also CN1Cc2c(cc(N3CCO[C@@H](c4cnn(C5CC5)c4)C3)nc2-c2ccc(Cl)cc2F)C1=O [compound 212] , if possible.
OUT: 6.30 to 7.30

IN: Okay, and CC(C)N1Cc2c(cc(N3CCO[C@@H](c4cnn(C)c4)C3)nc2-c2ccc(Cl)cc2F)C1=O [compound 205] ?
OUT: 5.52 to 6.30

Next:
IN: Recorded pEC50 of CN1Cc2c(cc(N3CCO[C@@H](c4cnn(C)c4)C3)nc2-c2ccc(Cl)cc2F)C1=O [compound 200] , please.
OUT: 4.00 to 5.52

###

target: human TREM2 (Homo sapiens, UniProt Q9NZC2); construct: expressed in transfected cells; host or cells: HEK293T-hTREM2 cells (HEK cell line expressing human TREM2 and DAP12); experiment: In vitro measurement of TREM2 activity using cellular phosphorylation of spleen tyrosine kinase (Syk), AlphaLisa, HEK293T-hTREM2 cells; type: cell-based; conditions: HEK293T cells expressing human TREM2 and DAP12, 45 min at room temperature, Table D-2
pEC50: −log10 of the molar value.
Measured pEC50, listed per entry for reference.

IN: Data request, read-out pEC50, for CN1Cc2c(cc(N3CCO[C@@H](c4cnn(C)c4)C3)nc2C2CC(C(F)(F)F)C2)C1=O (stereo partly drawn)
OUT: 4.00 to 5.52

IN: Query `C[C@@H]1c2c(cc(N3CCO[C@@H](c4cnn(C)c4)C3)nc2-c2ccc(Cl)cc2F)C(=O)N1C` next
OUT: 4.00 to 5.52

# ---- query compound ----
IN: Name the reported pEC50 value associated with the compound `CN1Cc2c(cc(-c3ccc(Cl)cc3F)nc2-c2ccc(Cl)cc2F)C1=O`
OUT: 4.00 to 5.52

###

The compounds listed here are annotated with their EC50.
target: human TREM2 (Homo sapiens); construct: expressed in transfected cells; host or cells: HEK293T-hTREM2 cells (HEK cell line expressing human TREM2 and DAP12); assay: In vitro measurement of TREM2 activity using cellular phosphorylation of spleen tyrosine kinase (Syk), AlphaLisa, HEK293T-hTREM2 cells; assay type: cell-based; conditions: HEK293T cells expressing human TREM2 and DAP12, 45 min at room temperature, Table D-2

IN: For the compound CN1C(=O)c2cc(-c3ccc(Cl)cc3F)nc(N3CCO[C@@H](c4cnn(C)c4)C3)c2C1(C)C [compound 207] , what EC50 is on record?
OUT: 3 to 100 µM

IN: Check C[C@@H]1CN(c2cc3c(c(-c4ccc(C(F)(F)F)cc4F)n2)CN(c2ccn(C)n2)C3=O)C[C@H](c2cnn(C3CC3)c2)O1 [compound 228] too.
OUT: ≤ 0.05 µM

Next compound, EC50 to be filled in.
IN: Value lookup for EC50; key = C[C@@H]1CN(c2cc3c(c(C4CCC(C(F)(F)F)CC4)n2)CN(C)C3=O)C[C@H](c2cnn(C3CC3)c2)O1 (mixture of isomers) [compound 227]
OUT: 0.05 to 0.5 µM

###

target: human TREM2 (Homo sapiens); construct: expressed in transfected cells; host or cells: HEK293T-hTREM2 cells (HEK cell line expressing human TREM2 and DAP12); assay: In vitro measurement of TREM2 activity using cellular phosphorylation of spleen tyrosine kinase (Syk), AlphaLisa, HEK293T-hTREM2 cells; assay type: cell-based; settings: HEK293T cells expressing human TREM2 and DAP12, 45 min at room temperature, Table D
pEC50: −log10 of the molar value.
OBSERVED PROPERTY: pEC50

Record excerpt, results attached:
IN: # get_value(readout='pEC50', item= `C[C@@H]1CN(c2cc(-c3ccc(F)cc3F)c3sccc3n2)C[C@H](c2cnn(C3CC3)c2)O1` )
OUT: 5.52 to 6.30

IN: Same question, `CN(C)c1nc2nc([C@H]3CCO[C@@H](c4cnn(C5CC5)c4)C3)nc(C34CC(C(F)(F)F)(C3)C4)c2[nH]1` this time
OUT: 5.52 to 6.30

IN: What do we get for `Cc1cn2c(-c3ccc(Cl)cc3F)nc(N3C[C@@H](C)O[C@@H](c4cnn(C5CC5)c4)C3)cc2n1` ?
OUT: 6.30 to 7.30

IN: What about this compound? CN(C)c1nc2nc([C@@H]3CCO[C@H](c4ccc(=O)n(C)c4)C3)nc(-c3ccc(F)cc3F)c2s1 (stereo in doubt)
OUT: ≥ 7.30

IN: Here is the next compound: `Cc1cn2c(-c3ccc(C(F)(F)F)cc3F)nc([C@H]3CCO[C@@H](c4cnn(C5CC5)c4)C3)cc2n1`
OUT: 6.30 to 7.30

Continuing:
IN: Field request: pEC50 | item: `Cc1c(F)ccc(-c2cc(N3C[C@@H](C)O[C@@H](c4cnn(C5CC5)c4)C3)nc3ncnn23)c1F`
OUT: 5.52 to 6.30

IN: What about this compound? `Cc1cc([C@H]2CN(c3nc(-c4ccc(F)cc4F)c4sc(N(C)C)nc4n3)C[C@@H](C)O2)ccn1`
OUT: ≥ 7.30

IN: Likewise for `C[C@@H]1CN(c2nc(-c3ccc(F)cc3F)c3sc(N4CCC[C@H]4C)nc3n2)C[C@H](c2cnn(C3CC3)c2)O1` ?
OUT: ≥ 7.30

IN: Another compound: `C[C@@H]1CCCN1c1nc2nc([C@H]3CCO[C@@H](c4cnn(C5CC5)c4)C3)nc(-c3ccc(F)cc3F)c2n1C`
OUT: 6.30 to 7.30

IN: Entry to check: CN(C)c1nc2nc([C@@H]3CCO[C@@H](c4cnn(C5CC5)c4)C3)nc(-c3cc(F)c(Cl)cc3F)c2s1 (racemic)
OUT: 4.00 to 5.52

IN: Another compound to check: `CN(C)c1nc2nc([C@H]3CCO[C@@H](c4cnn(C5CC5)c4)C3)nc(-c3ccc(C(F)F)cc3F)c2s1`
OUT: 6.30 to 7.30

Where these numbers come from: patent US20260315483A1
